target: human SGLT1 (Homo sapiens (Human)); assay: SGLT1 inhibitory activity: 14C-AMG uptake into CHO-K1 cell line stably expressing human SGLT1; format: cell-based; details: 14C-AMG uptake, CHO-K1 cells expressing human SGLT1
pIC50: −log10 of the molar value.
Measured endpoint: pIC50

Some molecules with recorded pIC50:
1) O=C1CCC(C(=O)Nc2cc(-c3cccc(OC(F)(F)F)c3)n(-c3ccccc3F)n2)CN1 (single isomer, unassigned)    7.82
2) Cc1ccccc1-n1nc(NC(=O)[C@H]2CNC(=O)C2)cc1-c1cccc(C(F)(F)F)c1    8.20

[1] CCC(F)(F)c1cccc(-c2cc(NC(=O)[C@H]3CNC(=O)C3)nn2-c2ccccc2C)c1
[2] C[C@H]1C(=O)NC[C@@H]1C(=O)Nc1cc(-c2cccc(OCC(F)(F)F)c2)n(-c2ccccc2)n1
[3] CCCc1cccc(-c2cc(NC(=O)[C@H]3CNC(=O)C3)nn2-c2cccc(OCC(=O)O)c2)c1
[4] O=C1C[C@@H](C(=O)Nc2cc(-c3cccc(OCC(F)(F)F)c3)n(-c3ccccc3)n2)CN1
[5] Cc1ccccc1-n1nc(NC(=O)[C@H]2CNC(=O)[C@@H]2C)cc1-c1cccc(OC(F)(F)F)c1
Query :: // smallest pIC50 at index 0, largest at the end Output the labels ranked as instructed.
Result :: 3, 4, 2, 5, 1

###

target: human SGLT1 (Homo sapiens (Human)); assay: SGLT1 inhibitory activity: 14C-AMG uptake into CHO-K1 cell line stably expressing human SGLT1; format: cell-based; settings: 14C-AMG uptake, CHO-K1 cells stably expressing human SGLT1
pIC50: −log10 of the molar value.
Measured endpoint: pIC50

Sample answers from the record:
1. CC(C)(OCc1cc(Cl)cc(-c2cc(NC(=O)[C@H]3CNC(=O)N3)nn2-c2ccccc2)c1)C(F)(F)F [Example 594]    7.18
2. CCCc1cccc(-c2cc(NC(=O)[C@H]3CNC(=O)N3CCC)nn2-c2ccccc2)c1 [Example 304]    8.00

[1] COc1cccc(-n2nc(NC(=O)[C@@H]3CNC(=O)C3)cc2-c2cccc(CO[C@H](C)C(F)(F)F)c2)c1 [Example 451]
[2] C[C@@H](OCc1cc(F)cc(-c2cc(NC(=O)[C@H]3CNC(=O)O3)nn2-c2ccc(Cl)cc2)c1)C(F)(F)F [Example 571]
[3] C[C@@H](OCc1cccc(-c2cc(NC(=O)[C@@H]3CCC(=O)N3)nn2-c2ccccc2)c1)C(F)(F)F [Example 547]
[4] C[C@@H](OCc1cc(F)cc(-c2cc(NC(=O)[C@H]3CNC(=O)N3)nn2-c2ccc(F)cc2)c1)C(F)(F)F [Example 240]
[5] O=C1NC[C@@H](C(=O)Nc2cc(-c3cccc(OC(F)(F)F)c3)n(-c3ccccc3)n2)O1 [Example 263]
Query :: Endpoint returns the given compounds ordered by ascending pIC50. Answer by listing the labels in the order asked for.
Result :: 5, 3, 4, 2, 1
(5: 6.43, 3: 7.37, 4: 7.70, 2: 8.03, 1: 8.48)

###

target: UniProt P13866; experiment: SGLT1 inhibitory activity: 14C-AMG uptake into CHO-K1 cell line stably expressing human SGLT1; type: cell-based; conditions: CHO-K1, at 0.1 uM
Measured endpoint: inhibition at 0.1 µM (%)

[I] O=C1C[C@H](C(=O)Nc2cc(-c3cccc(OC(F)(F)F)c3)n(-c3ccc(Cl)cc3)n2)CN1
[II] CC(C)NC(=O)c1cccc(-c2cc(NC(=O)[C@@H]3CNC(=O)C3)nn2-c2ccccc2)c1
Query :: Looking at I and II , which one comes out lower in inhibition at 0.1 µM terms? Field: selected label. Fill in the label of the entry you choose.
Result :: II
(II: 21%, I: 50%)

###

target: human SGLT1 (Homo sapiens (Human), UniProt P13866); assay: SGLT1 inhibitory activity: 14C-AMG uptake into CHO-K1 cell line stably expressing human SGLT1; type: cell-based; details: CHO-K1, at 0.3 uM
Sequence (P13866 whole entry): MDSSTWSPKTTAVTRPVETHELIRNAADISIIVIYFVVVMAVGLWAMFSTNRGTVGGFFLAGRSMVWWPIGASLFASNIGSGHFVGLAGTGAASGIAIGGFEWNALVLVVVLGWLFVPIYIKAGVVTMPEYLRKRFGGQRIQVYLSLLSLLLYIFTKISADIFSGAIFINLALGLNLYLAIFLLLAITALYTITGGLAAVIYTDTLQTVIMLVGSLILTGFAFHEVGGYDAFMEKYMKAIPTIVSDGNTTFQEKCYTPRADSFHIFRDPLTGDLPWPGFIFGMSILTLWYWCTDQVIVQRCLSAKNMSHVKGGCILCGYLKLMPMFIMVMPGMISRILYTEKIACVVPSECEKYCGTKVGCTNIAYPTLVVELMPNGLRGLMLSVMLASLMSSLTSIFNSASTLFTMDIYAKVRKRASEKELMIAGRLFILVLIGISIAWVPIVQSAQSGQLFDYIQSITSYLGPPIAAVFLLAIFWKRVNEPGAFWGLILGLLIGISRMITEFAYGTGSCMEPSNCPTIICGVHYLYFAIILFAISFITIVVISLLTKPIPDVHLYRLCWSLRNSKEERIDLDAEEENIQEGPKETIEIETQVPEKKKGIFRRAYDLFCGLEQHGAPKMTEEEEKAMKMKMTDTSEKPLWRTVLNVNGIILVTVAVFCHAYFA
Measured endpoint: inhibition at 0.3 µM (%)

Below, each entry is followed by its recorded inhibition at 0.3 µM result.
1) CC(C)S(=O)(=O)Cc1cccc(-c2cc(NC(=O)[C@@H]3CNC(=O)C3)nn2-c2ccccc2)c1    22
2) C[C@H]1C(=O)NC[C@@H]1C(=O)Nc1cc(-c2cccc(OC(F)(F)F)c2)n(-c2ccc(Cl)c(F)c2)n1    -10
3) CC1C(=O)NC(O)C1C(=O)Nc1cc(-c2cccc(OC(F)(F)F)c2)n(-c2ccccc2)n1 (racemic)    49

[I] CC(C)(O)c1cccc(-c2cc(NC(=O)[C@@H]3CNC(=O)C3)nn2-c2ccccc2)c1
[II] CCCc1cccc(-c2cc(NC(=O)[C@H]3CN(CC)C(=O)N3)nn2-c2ccccc2)c1
Query :: Which value of inhibition at 0.3 µM is numerically greater: that of I or that of II ? Write down the label of the entry you select.
Result :: I

###

target: UniProt P13866; assay: SGLT1 inhibitory activity: 14C-AMG uptake into CHO-K1 cell line stably expressing human SGLT1; type: cell-based; conditions: 14C-AMG uptake, CHO-K1 cells stably expressing human SGLT1
pIC50: −log10 of the molar value.
Measured endpoint: pIC50

The cases that follow already have their pIC50 on record.
1. CCCCc1cccc(-c2cc(NC(=O)[C@H]3CNC(=O)O3)nn2-c2ccccc2)c1    7.89
2. CC(C)(C)OCc1cccc(-c2cc(NC(=O)[C@@H]3CNC(=O)C3)nn2-c2ccccc2)c1    7.71

[1] CCCc1cccc(-c2cc(NC(=O)[C@H]3COC(=O)N3)nn2-c2ccccc2)c1
[2] C[C@@H](OCc1cccc(-c2cc(NC(=O)[C@@H]3CNC(=O)C3)nn2-c2ccccc2F)c1)C(F)(F)F
Query :: I'm curious whether 1 or 2 has the smaller pIC50 number. Which is it? Could you answer with the label of the item you picked?
Result :: 1

###

target: UniProtKB P13866; assay: SGLT1 inhibitory activity: 14C-AMG uptake into CHO-K1 cell line stably expressing human SGLT1; assay type: cell-based; conditions: 14C-AMG uptake, CHO-K1 cells expressing human SGLT1
Measured endpoint: IC50 (µM)

1. COC(C)(C)c1cccc(-c2cc(NC(=O)[C@H]3CNC(=O)C3)nn2-c2ccccc2)c1 [Example 82]    0.012
2. Cc1ccc(-n2nc(NC(=O)[C@H]3CNC(=O)[C@@H]3C)cc2-c2cccc(OCC(F)(F)F)c2)cc1 [Example 217]    0.0062
3. COC(C)(C)c1cccc(-c2cc(NC(=O)[C@@H]3CNC(=O)C3)nn2-c2ccccc2)c1 [Example 83]    0.011
4. CC(C)(C)c1cccc(-c2cc(NC(=O)[C@H]3CNC(=O)C3)nn2-c2ccccc2Cl)c1 [Example 132]    0.0009
5. CCCc1cccc(-c2cc(NC(=O)C3COC(=O)C3)nn2-c2ccccc2)c1 (racemic) [Example 7]    0.033

[I] O=C1C[C@H](C(=O)Nc2cc(-c3cccc(OC(F)(F)F)c3)n(-c3ccccc3)n2)CN1 [Example 29]
[II] O=C1C[C@@H](C(=O)Nc2cc(-c3cccc(OC(F)(F)F)c3)n(C3CCOCC3)n2)CN1 [Example 187]
Query :: I or II : whose IC50 is greater? Lab note: record the label of whichever item you select.
Result :: II
(II: 0.042 µM, I: 0.024 µM)

###

molecular target: human SGLT1 (Homo sapiens (Human)); assay: SGLT1 inhibitory activity: 14C-AMG uptake into CHO-K1 cell line stably expressing human SGLT1; assay type: cell-based; conditions: 14C-AMG uptake, CHO-K1 cells expressing human SGLT1
Measured endpoint: IC50 (nM)

1) CCCc1cccc(-c2cc(NC(=O)C3CC(=O)NC3C)nn2-c2ccccc2)c1 (single isomer, unassigned) [Example 20]    150
2) CC(C)(C)c1cccc(-c2cc(NC(=O)C3CCC(=O)NC3)nn2C2CCOCC2)c1 (single isomer, unassigned) [Example 186]    75
3) C[C@H]1C(=O)NC[C@@H]1C(=O)Nc1cc(-c2cccc(OC(F)(F)F)c2)n(C2CCOCC2)n1 [Example 188]    23
4) O=C1C[C@@H](C(=O)Nc2cc(-c3cccc(O)c3)n(-c3ccccc3)n2)CN1 [Example 118]    9300

[1] CCCc1cccc(-c2cc(NC(=O)[C@@H]3CNC(=O)C3)nn2C2CCCC2)c1 [Example 65]
[2] CCCc1cccc(-c2cc(NC(=O)[C@H]3CNC(=O)C3)nn2-c2ccc(Cl)cc2)c1 [Example 36]
[3] CC1(C)C=C(c2cc(NC(=O)[C@H]3CNC(=O)C3)nn2-c2ccccc2)CCC1 [Example 79]
[4] C[C@H]1C(=O)NC[C@@H]1C(=O)Nc1cc(-c2cccc(OC(F)(F)F)c2)n(-c2ccccc2Cl)n1 [Example 193]
Query :: hey, can you rank those compounds up there by IC50? biggest number first please A ranking is expressed here by listing the labels in the requested order.
Result :: 1, 3, 2, 4

[A] CCCc1cccc(-c2cc(NC(=O)[C@@H]3CNC(=O)C3)nn2-c2ccccc2)c1 [Example 23]
[B] CCCc1cccc(-c2cc(NC(=O)[C@@H]3CNC(=O)N3C)nn2-c2ccccc2)c1 [Example 125]
Query :: Which value of IC50 is greater, the one for A or the one for B ? # answer = label of selected item
Result :: B
